Assay: label from the status in PepcDB records
Endpoint: protein production

sequence_text=MDPLLVTVITTCGKVFQFHVDRRRNVGYLKKRISKEGKGFPEVDDQEILFKGEKLDDNRIIDGICKDGNSVIHLLVKKS recorded_value="not failed"
sequence_text=MSLSFLKHVQDCNTHDLSNFVRFVIEGRRVGWVRKALAQRLKAHGRVFDVTRDAVLLSASLRTPQSRTRAVADVVDRLADEGVVPAPRGELYRVNQSWGEPTLMLLDRAVVPTFGVRAYGVHLNGYVGAGADLHLWIGRRSPDKSVAPGKLDNMVAGGQPADLSLRQNLIKECAEEADLPEALARQAIPVGAITYCMESPAGIKPDTLFLYDLALPEDFRPHNTDGEMADFMLWPAAKVVEAVRTTEAFKFNVNLTVIDFAIRHGLIDPDNEPDYQEILAGLRGRPRERAASEGHHHHHH recorded_value="not failed"
sequence_text=MNIVLFHSTLGPRPAVRQAADRLRDAGHQVWTPDLFEGRTFDTVEEGMAHQDGIGREELLKRAVLAAAPYSERGLVYAGFSLGASIAQTLALGDHRARGLLLLHGTSDLAPNASVDELPVQLHVAEPDPFETDDWLSAWYLQMGRIGADVEVHRYPGAGHLYTDPGLDDYDAEAAEATWRVALGFLESLQEAQAGE recorded_value=failed
sequence_text=MRFVVAFFWTFLLTQMACYIVGAMNGAGYDLQTSVIMGFIITAAVIVLGEIMPVKQDASQH recorded_value=failed

====

Experiment: label from the status in PepcDB records
Endpoint: protein production

sequence_text=MDTSTNLDIGAQLIVEECPSTYSLTGMPDIKIEHPLDPNSEEGSAQGVAMGMKFILPNRFDMNVCSRFVKSLNEEDSKNIQDQVNSDLEVASVLFKAECNIHTSPSPGIQVRHVYTPSTTKHFSPIKQSTTLTNKHRGNEVSTTPLLANSLSVHQLAAQGEMLYLATRIEQENVINHTDEEGFTPLMWAAAHGQIAVVEFLLQNGADPQLLGKGRESALSLACSKGYTDIVKMLLDCGVDVNEYDWNGGTPLLYAVHGNHVKCVKMLLESGADPTIETDSGYNSMDLAVALGYRSVQQVIESHLLKLLQNIKE recorded_value=failed
sequence_text=MALKATIYKADLNIANMDSHHYADYQLTLALHPSETIERLMVRILAFARFADENLQFTKDLFETDEPALWQKDLTGQLEQWIELGQPSEDKLKKASARCKHVVVVTYGQQVDEWWKRNNKVKTLSNVEVWQLAPETTSQLEKLCERTMQLQLNVMDGEWTLLNDHEQVDVSWTKLH recorded_value=failed
sequence_text=MIHDVDPTNDKYPAALRILHWVRALLTLGLIAAGWMMTVLADTVTEKFTLLYPWHKSFGVLVFLIVLAQLAIRAMSRLPGPAPLPAQERLLSQAVHVAMYALLLLVPLMGYAMSSSFTDSDGVFFFGIHLPELLPKDDDRFRLFQFLHKTLAYSLLALVILHVAGALKHRYFDKDRRTDVLPRII recorded_value=failed
sequence_text=MTAFRQRPLRLGHRGAPLKAKENTLESFRLALEAGLDGVELDVWPTRDGVFAVRHDPDTPLGPVFQVDYADLKAQEPDLPRLEEVLALKEAFPQAVFNVELKSFPGLGEEAARRLAALLRGREGVWVSSFDPLALLALRKAAPGLPLGFLMAEDHSALLPCLGVEAVHPHHALVTEEAVAGWRKRGLFVVAWTVNEEGEARRLLALGLDGLIGDRPEVLLPLGG recorded_value="not failed"
sequence_text=MSQFWYSEETASRLAEELLQQAGEHGRIACLSAPSVYQKLKQLESVRSDGVSAVLLEFDRRFAAYGDEFVFYDYNNPLCLPEDLLPQSFDIVIADPPYLSEECLSKVTLTVKHLTKGKILLCTGAIMEEHAGKLLDLKMCSFLPRHNHNLANEFRCYVNYESRLLS recorded_value=failed
sequence_text=MNNTLLYVITVLIWGSTWIAINYQLGEVAAEVSIVYRFGLAALCMFAYCRFKKLPLKFSAKQHLQLSAFGLTLFGFNYYLLYNAQAHINSALTSIAFSTLMMINILNARVWFKTRISSRVYYGGALGLMGIVTLFWPQISNVHFGDSTLLGLGLCLIGVVFASTGNMISIKNQHDNMPVLPATAWGMMYGSLFMFVVALVQGQTFNFSYTFEYISSLLYLSIFGSVIAFGCYLTLLARIGAHKASYATIMFPAVAVVISSFFEGFIWDSYTFIGLSLMLAGNLVVLAKPGMLKRFNSTSLKQVSCSDAK recorded_value=failed
sequence_text=SFRTTKEEVVEKAKAFISAHYTEELNLSVIASQLYVNPFYLRRIFKEETELSPSQYLLKKRIEAALALLVNQEETITDIAFKVGFKSPAHFSTVFRHMIGLPPQKYRES recorded_value=failed
sequence_text=RIVGELEQMVSEDVPLDHRVHARIIGARGKAIRKIMDEFKVDIRFPQSGAPDPNCVTVTGLPENVEEAIDHILNLEEEYLAD recorded_value="not failed"
sequence_text=MAAKKDYYAILGVPRNATQEEIKRAYKRLARQYHPDVNKSPEAEEKFKEINEAYAVLSDPEKRRIYDTYGTTEAPPPPPPGGYDFSGFDVEDFSEFFQELFGPGLFGGFGRRSRKGRDLRAELPLTLEEAFHGGERVVEVAGRRVSVRIPPGVREGSVIRVPGMGGQGNPPGDLLLVVRLLPHPVFRLEGQDLYATLDVPAPIAVVGGKVRAMTLEGPVEVTIPPRTQAGRKLRLRGKGFPGPAGRGDLYLEVRITIPERLTPEEEALWKKLAEAYYARA recorded_value=failed
sequence_text=VKNGNDTRMTLLNNWESTYFDFDENKLIGLMDEATKLGVDMFLLDDGWFANKYPRSSDHQGLGDWEETADKLPNGVGRLVEEAQKKGIKFGIWIEPEMVNPKSELYEKHKDWVIHLPNRDEYYFRNQMVLDLSNPKVQDHVFGVVDNLMTKYPGIAFFKWDCNSPITNIYSVYLKDKQSHLYVDYVRGLYKVLDRIKAKYPNLPMMLCAGGGGRSDYEALKYFTEFWPSDNTDPIERLFIQWGYSQIFPSKTLCAHVTTWNRGTSIKFRTDVAMMCKLGFDIKLEDMNQNEHLYCDQAVKNYNRLKPVILEG recorded_value=failed
sequence_text=MNDTSNPYATPASALQPTQAVPPVIGDYDFRIGDVISEAWAKIKGVKGILIGAFVVYSVVIQTITFILTLLFGGIGLMSEADPIAFAVGQMIASLVATAVGYPFFTGLTMIGIRRAADQPATFNEMFNYFGMLVPLLLTGLLMMLMVYVGFFLLIIPGLYLSVAYMLALPLVAERGLTPWQALETSRKAISRHWFKVFGLLLVLSLLMLVSMIPLFIGLIWTGPLFVVSMGILYRTIFGVRPLGN recorded_value=failed
sequence_text=MGHHHHHHSHMTLRCLEPSGNGGEGTRSQWGTAGSAEEPSPQAARLAKALRELGQTGWYWGSMTVNEAKEKLKEAPEGTFLIRDSSHSDYLLTISVKTSAGPTNLRIEYQDGKFRLDSIICVKSKLKQFDSVVHLIDYYVQMCKDKRTGPEAPRNGTVHLYLTKPLYTSAPSLQHLCRLTINKCTGAIWGLPLPTRLKDYLEEYKFQV recorded_value=failed
sequence_text=MIRFEIHGDNLTITDAIRNYIEEKVGKLERYFNNVPNAVAHVRVKTYSNSTTKIEVTIPLKDVTLRAEERHDDLYAGIDLITNKLERQVRKYKTRVNRKHRDRGDQDIFVAEVQESTTNNHADDIESENDIEIIRSKQFSLKPMDSEEAVLQMNLLGHDFFIFTDRETDGTSIVYRRKDGKYGLIETTELEHHHHHH recorded_value="not failed"
